# Test system: PC3 (prostate) cancer cell lines
# assay summary: AlamarBlue cytotoxicity assay, PC3
# Format: cell-based
# experimental conditions: PC3, 15 µg/mL

molecule	viability at 15 µg/mL [%]
O=C(O)CCC(/N=C/c1ccccc1OCc1cn(-c2ccccc2)nn1)C(=O)O (stereo in doubt)	81
O=C([O-])[C@H](Cc1ccc([O-])cc1)/N=C/c1ccccc1OCc1cn(-c2ccccc2)nn1.[Na+].[Na+]	78
O=Cc1ccccc1OCc1cn(-c2ccccc2)nn1	89
O=C([O-])[C@H](Cc1c[nH]c2ccccc12)/N=C/c1ccccc1OCc1cn(-c2ccccc2)nn1.[Na+]	65.3
